- Protocol notes: Pharmacokinetics in Sprague Dawley rats
- Type: in vivo
- Condition summary: male, rat, plasma, po, 30 mg/kg, Rat, PO 30 mg/kg, read-out: t1/2 (converted)
Observation type: half-life

Dear colleague, please send me the reported half-life for N#C[C@@]1(c2ccc3c(N)ncnn23)O[C@H](CO)[C@@H](O)[C@H]1O when you can.
3.4 h

---

- Protocol notes: physchem
- Condition summary: pH 1.6, simulated gastric fluid, thermodynamic from solid
Observation type: solubility thermodynamic

Dear colleague, please send me the reported solubility thermodynamic for N#C[C@@]1(c2ccc3c(N)ncnn23)O[C@H](CO)[C@@H](O)[C@H]1O [GS-441524] when you can.
> 1000 µg/mL
